Consider the following molecules and their measured viability, T/C readings.
- System: HOP-62 complex spheroids with HUVEC/MSC, viability
- protocol details: Anticancer human tumor HOP-62 cell line growth inhibition [RAS];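 note: spheroids exposed to agents for seven days before readout; 100% = DMSO vehicle control viability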
- condition notes: second compound 0.0949 µM; first compound 3.16 µM; active compounds read low

molecule | result type | test result
CC(=O)OC12COC1CC(O)C1(C)C(=O)C(O)C3=C(C)C(OC(=O)C(O)C(NC(=O)OC(C)(C)C)c4ccccc4)CC(O)(C(OC(=O)c4ccccc4)C21)C3(C)C (configuration not stated) + CCn1c(-c2cccnc2C(C)OC)c2c3cc(ccc31)N1CCOC(CC(NC(=O)C(C(C)C)N(C)C(=O)C3(F)CCN(C(=O)C#CC(C)(C)N(C)C)CC3)C(=O)N3CCCC(N3)C(=O)OCC(C)(C)C2)C1 | viability, T/C | 34.9%

// next entry
Fill in: viability, T/C of CC(C)NCC(C(=O)N1CCN(c2ncnc3c2C(C)CC3O)CC1)c1ccc(Cl)cc1 (configuration not stated) + CCn1c(-c2cc(N3CCN(C)CC3)cnc2C(C)OC)c2c3cc(ccc31)-c1csc(n1)CC(NC(=O)C1CC1C)C(=O)N1CCCC(N1)C(=O)OCC(C)(C)C2 is ___
15%

----------
- Tested on: HOP-62 complex spheroids with HUVEC/MSC, viability
- protocol details: Anticancer human tumor HOP-62 cell line growth inhibition [RAS];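 note: spheroids exposed to agents for seven days before readout; 100% = DMSO vehicle control viability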
- condition notes: second compound 0.00949 µM; first compound 0.316 µM; active compounds read low
result type: viability, T/C (%)
Numeric only. Scale: %

molecule | viability, T/C (%)
C=CC(=O)N1CCN(c2nc(OCC3CCCN3C)nc3c(F)c(-c4nc(N)cc(C)c4C(F)(F)F)c(Cl)cc23)C(C)C1 (configuration not stated) + CCn1c(-c2cc(N3CCN(C)CC3)cnc2C(C)OC)c2c3cc(ccc31)-c1csc(n1)CC(NC(=O)C1CC1C)C(=O)N1CCCC(N1)C(=O)OCC(C)(C)C2 | 49.7
CCC(CC)c1cc(NC2CCC(N)C2)n2nccc2n1 (configuration not stated) + CCn1c(-c2cc(N3CCN(C)CC3)cnc2C(C)OC)c2c3cc(ccc31)-c1csc(n1)CC(NC(=O)C1CC1C)C(=O)N1CCCC(N1)C(=O)OCC(C)(C)C2 | 80
CC(=O)OC12COC1CC(O)C1(C)C(=O)C(O)C3=C(C)C(OC(=O)C(O)C(NC(=O)OC(C)(C)C)c4ccccc4)CC(O)(C(OC(=O)c4ccccc4)C21)C3(C)C (configuration not stated) + CCn1c(-c2cc(N3CCN(C)CC3)cnc2C(C)OC)c2c3cc(ccc31)-c1csc(n1)CC(NC(=O)C1CC1C)C(=O)N1CCCC(N1)C(=O)OCC(C)(C)C2 | 31.5
NC1c2ccccc2OC12CCN(c1cnc3c(N4CCCc5ncccc54)n[nH]c3n1)CC2 (configuration not stated) + CCn1c(-c2cccnc2C(C)OC)c2c3cc(ccc31)N1CCOC(CC(NC(=O)C(C(C)C)N(C)C(=O)C3(F)CCN(C(=O)C#CC(C)(C)N(C)C)CC3)C(=O)N3CCCC(N3)C(=O)OCC(C)(C)C2)C1 | 29.6
CC(=O)OC12COC1CC(O)C1(C)C(=O)C(O)C3=C(C)C(OC(=O)C(O)C(NC(=O)OC(C)(C)C)c4ccccc4)CC(O)(C(OC(=O)c4ccccc4)C21)C3(C)C (configuration not stated) + CCn1c(-c2cccnc2C(C)OC)c2c3cc(ccc31)N1CCOC(CC(NC(=O)C(C(C)C)N(C)C(=O)C3(F)CCN(C(=O)C#CC(C)(C)N(C)C)CC3)C(=O)N3CCCC(N3)C(=O)OCC(C)(C)C2)C1 | 29.4
Cc1nc(N2CCC3(CC2)COC(C)C3N)c(CO)nc1Sc1ccnc(N)c1Cl (configuration not stated) + CCn1c(-c2cccnc2C(C)OC)c2c3cc(ccc31)N1CCOC(CC(NC(=O)C(C(C)C)N(C)C(=O)C3(F)CCN(C(=O)C#CC(C)(C)N(C)C)CC3)C(=O)N3CCCC(N3)C(=O)OCC(C)(C)C2)C1 | 83.1

Fill in: viability, T/C of Nc1ccn(C2OC(CO)C(O)C2(F)F)c(=O)n1 (configuration not stated) + CCn1c(-c2cccnc2C(C)OC)c2c3cc(ccc31)N1CCOC(CC(NC(=O)C(C(C)C)N(C)C(=O)C3(F)CCN(C(=O)C#CC(C)(C)N(C)C)CC3)C(=O)N3CCCC(N3)C(=O)OCC(C)(C)C2)C1 is ___
10.9

----------
- Tested on: HOP-62 complex spheroids with HUVEC/MSC, viability
- protocol details: Anticancer human tumor HOP-62 cell line growth inhibition [RAS];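 note: spheroids exposed to agents for seven days before readout; 100% = DMSO vehicle control viability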
- condition notes: second compound 0.00949 µM; first compound 0.00316 µM; active compounds read low
result type: viability, T/C (%)
Numeric only. Scale: %

compound | system | viability, T/C / %
O=C(c1ccc(F)c(F)c1Nc1ccc(I)cc1F)N1CC(O)([C@@H]2CCCCN2)C1 + CCn1c(-c2cc(N3CCN(C)CC3)cnc2C(C)OC)c2c3cc(ccc31)-c1csc(n1)CC(NC(=O)C1CC1C)C(=O)N1CCCC(N1)C(=O)OCC(C)(C)C2 | HOP-62 complex spheroids with HUVEC/MSC, viability | 65.5
O=C(c1ccc(F)c(F)c1Nc1ccc(I)cc1F)N1CC(O)([C@@H]2CCCCN2)C1 + CCn1c(-c2cccnc2C(C)OC)c2c3cc(ccc31)N1CCOC(CC(NC(=O)C(C(C)C)N(C)C(=O)C3(F)CCN(C(=O)C#CC(C)(C)N(C)C)CC3)C(=O)N3CCCC(N3)C(=O)OCC(C)(C)C2)C1 | HOP-62 complex spheroids with HUVEC/MSC, viability | 85.6
C=CC(=O)Nc1cc(Nc2nccc(-c3cn(C)c4ccccc34)n2)c(OC)cc1N(C)CCN(C)C + CCn1c(-c2cc(N3CCN(C)CC3)cnc2C(C)OC)c2c3cc(ccc31)-c1csc(n1)CC(NC(=O)C1CC1C)C(=O)N1CCCC(N1)C(=O)OCC(C)(C)C2 | HOP-62 complex spheroids with HUVEC/MSC, viability | 76.6

// next entry
Fill in: viability, T/C of Nc1ccn(C2OC(CO)C(O)C2(F)F)c(=O)n1 (centres undefined) + CCn1c(-c2cc(N3CCN(C)CC3)cnc2C(C)OC)c2c3cc(ccc31)-c1csc(n1)CC(NC(=O)C1CC1C)C(=O)N1CCCC(N1)C(=O)OCC(C)(C)C2 is ___
68.1

----------
Consider the following molecules and their measured viability, T/C readings.
- Test system: HOP-62 complex spheroids with HUVEC/MSC, viability
- protocol details: Anticancer human tumor HOP-62 cell line growth inhibition [RAS];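 note: spheroids exposed to agents for seven days before readout; 100% = DMSO vehicle control viability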
- condition notes: second compound 0.03 µM; first compound 3.16 µM; active compounds read low
Numeric only. Scale: %

molecule | viability, T/C [%]
C[C@@H](NC(=O)c1ncnc(N)c1Cl)c1ncc(C(=O)Nc2cc(C(F)(F)F)c(Cl)cn2)s1 + CCn1c(-c2cccnc2C(C)OC)c2c3cc(ccc31)N1CCOC(CC(NC(=O)C(C(C)C)N(C)C(=O)C3(F)CCN(C(=O)C#CC(C)(C)N(C)C)CC3)C(=O)N3CCCC(N3)C(=O)OCC(C)(C)C2)C1 | 64.5
CCC(CC)c1cc(NC2CCC(N)C2)n2nccc2n1 (stereo not drawn) + CCn1c(-c2cc(N3CCN(C)CC3)cnc2C(C)OC)c2c3cc(ccc31)-c1csc(n1)CC(NC(=O)C1CC1C)C(=O)N1CCCC(N1)C(=O)OCC(C)(C)C2 | 2.62
CC1(O)CCCC1n1c(=O)c(C(F)F)cc2cnc(NC3CCN(S(C)(=O)=O)CC3)nc21 (stereo not drawn) + CCn1c(-c2cccnc2C(C)OC)c2c3cc(ccc31)N1CCOC(CC(NC(=O)C(C(C)C)N(C)C(=O)C3(F)CCN(C(=O)C#CC(C)(C)N(C)C)CC3)C(=O)N3CCCC(N3)C(=O)OCC(C)(C)C2)C1 | 33
CC(Nc1ccc2c(c1)OCCn1cc(N3C(=O)OCC3C(F)F)nc1-2)C(N)=O (stereo not drawn) + CCn1c(-c2cc(N3CCN(C)CC3)cnc2C(C)OC)c2c3cc(ccc31)-c1csc(n1)CC(NC(=O)C1CC1C)C(=O)N1CCCC(N1)C(=O)OCC(C)(C)C2 | 13.8
NC1c2ccccc2OC12CCN(c1cnc3c(N4CCCc5ncccc54)n[nH]c3n1)CC2 (stereo not drawn) + CCn1c(-c2cccnc2C(C)OC)c2c3cc(ccc31)N1CCOC(CC(NC(=O)C(C(C)C)N(C)C(=O)C3(F)CCN(C(=O)C#CC(C)(C)N(C)C)CC3)C(=O)N3CCCC(N3)C(=O)OCC(C)(C)C2)C1 | 12

Fill in: viability, T/C of CC(C)NCC(C(=O)N1CCN(c2ncnc3c2C(C)CC3O)CC1)c1ccc(Cl)cc1 (stereo not drawn) + CCn1c(-c2cc(N3CCN(C)CC3)cnc2C(C)OC)c2c3cc(ccc31)-c1csc(n1)CC(NC(=O)C1CC1C)C(=O)N1CCCC(N1)C(=O)OCC(C)(C)C2 is ___
14.8

Fill in: viability, T/C of Cc1nc(N2CCC3(CC2)COC(C)C3N)c(CO)nc1Sc1ccnc(N)c1Cl (stereo not drawn) + CCn1c(-c2cc(N3CCN(C)CC3)cnc2C(C)OC)c2c3cc(ccc31)-c1csc(n1)CC(NC(=O)C1CC1C)C(=O)N1CCCC(N1)C(=O)OCC(C)(C)C2 is ___
16.8

Fill in: viability, T/C of CC1(O)CCCC1n1c(=O)c(C(F)F)cc2cnc(NC3CCN(S(C)(=O)=O)CC3)nc21 (stereo not drawn) + CCn1c(-c2cc(N3CCN(C)CC3)cnc2C(C)OC)c2c3cc(ccc31)-c1csc(n1)CC(NC(=O)C1CC1C)C(=O)N1CCCC(N1)C(=O)OCC(C)(C)C2 is ___
23.2
